Entry source: the supplement of paper PMC9112550

Test system: Escherichia coli TOP10
Measurement protocol: shrunken log2 fold change of peptide-encoding DNA abundance (4.5 h post-induction vs induction); higher = less antimicrobial activity (less host growth inhibition)
Recorded conditions: time post-induction: 4.5 h; library: site-saturation at positions 5, 18, 19, 20
shrunken log2 fold change listing for selected sequences.
Answer with a bare number; do not write a unit.

INSERT INTO assay_data (seq_string, system, reported_measurement) VALUES
  ('RRIRERPPRLPRPRPRPTCMPRP', 'Escherichia coli TOP10', -0.0554),
  ('RRIRIRPPRLPRPRPRPECKPRP', 'Escherichia coli TOP10', -0.259),
  ('RRIRPRPPRLPRPRPRPDQLPRP', 'Escherichia coli TOP10', -0.0341);

Bench note: what shrunken log2 fold change did RRIRWRPPRLPRPRPRPGCQPRP show?
-0.0225

* * *

Tested on: Escherichia coli TOP10
Measurement protocol: shrunken log2 fold change of peptide-encoding DNA abundance (4.5 h post-induction vs induction); higher = less antimicrobial activity (less host growth inhibition)
Recorded conditions: time post-induction: 4.5 h; library: site-saturation at positions 5, 18, 19, 20
Decision: shrunken log2 fold change compared against -0.01; not below it gives t, below it gives f.

As a guide, the following entries are already answered.
INSERT INTO measurements (seq_string, cat) VALUES
  ('RRIRSRPPRLPRPRPRPYLFPRP', 'f'),
  ('RRIRRRPPRLPRPRPRPYEDPRP', 'f'),
  ('RRIRSRPPRLPRPRPRPQIAPRP', 'f'),
  ('RRIRWRPPRLPRPRPRPRFYPRP', 't'),
  ('RRIRTRPPRLPRPRPRPYFKPRP', 'f');

Determine whether measured shrunken log2 fold change meets or exceeds -0.01 for RRIRWRPPRLPRPRPRPRVTPRP
t

Also need RRIRKRPPRLPRPRPRPAYAPRP , thanks.
f

Also need RRIRERPPRLPRPRPRPCMDPRP , thanks.
f

Also need RRIRNRPPRLPRPRPRPQAQPRP , thanks.
t

Also need RRIRPRPPRLPRPRPRPNCMPRP , thanks.
f

Also need RRIRSRPPRLPRPRPRPLVKPRP , thanks.
f

Also need RRIRIRPPRLPRPRPRPNAQPRP , thanks.
f

Also need RRIRCRPPRLPRPRPRPKMRPRP , thanks.
t

Also need RRIRGRPPRLPRPRPRPRWYPRP , thanks.
t

Also need RRIRVRPPRLPRPRPRPRRRPRP , thanks.
t

* * *

System: Escherichia coli TOP10;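 note: peptides expressed intracellularly from a pBAD plasmid library in pooled LB shake-flask culture, induced with 0.3% L-arabinose, DNA abundance read by NGS, three biological replicates, DESeq2 with apeglm shrinkage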
Measurement protocol: shrunken log2 fold change of peptide-encoding DNA abundance (4.5 h post-induction vs induction); higher = less antimicrobial activity (less host growth inhibition)
Recorded conditions: time post-induction: 4.5 h; library: site-saturation at positions 5, 18, 19, 20
Property name: shrunken log2 fold change
Answer with a bare number; do not write a unit.

Answered examples (5):
INSERT INTO assay_data (seq_string, property_name, reported_measurement) VALUES
  ('RRIRQRPPRLPRPRPRPGFQPRP', 'shrunken log2 fold change', 0.00598),
  ('RRIRTRPPRLPRPRPRPSELPRP', 'shrunken log2 fold change', -0.255),
  ('RRIRMRPPRLPRPRPRPGIMPRP', 'shrunken log2 fold change', 0.246),
  ('RRIRERPPRLPRPRPRPANNPRP', 'shrunken log2 fold change', -0.598),
  ('RRIRYRPPRLPRPRPRPWIYPRP', 'shrunken log2 fold change', -0.138);

Bench note: what shrunken log2 fold change did RRIRVRPPRLPRPRPRPCVIPRP show?
-0.0142

Also need RRIRVRPPRLPRPRPRPKACPRP , thanks.
0.153

Also need RRIRERPPRLPRPRPRPQIVPRP , thanks.
-0.108

Also need RRIRTRPPRLPRPRPRPKFMPRP , thanks.
-0.0326

Also need RRIRGRPPRLPRPRPRPMGAPRP , thanks.
0.821

Also need RRIRWRPPRLPRPRPRPIRLPRP , thanks.
-0.268

Also need RRIRCRPPRLPRPRPRPPYMPRP , thanks.
-0.288

Also need RRIRPRPPRLPRPRPRPSRLPRP , thanks.
-0.0839
